- assay_details: BSK_CASM3C_SRB: Viability Assessment in the BioMAP Diversity Plus: CASM3C Assay (AID 2283050);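 note: total protein by SRB staining as cytotoxicity measure in parallel cultures; cells exposed to compound for 24 h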
- condition_info: primary human coronary artery smooth muscle cells
Activity calls are given as the source filed them. Rule for the calls: active = hit-call score of the fitted dose curve at least 0.9, where 1 is the maximum; inactive = score below 0.9.
Outcome codes: label 1 for active, label 0 for inactive

>  <compound>
CC(C)(C)c1ccc(O)c(C(C)(C)C)c1

>  <label>
label 1

$$$$
>  <compound>
CCOC(=O)CC(O)(CC(=O)OCC)C(=O)OCC

>  <label>
label 0

$$$$
>  <compound>
CC(C)(C)c1cccc(C(C)(C)C)c1O

>  <label>
label 0

$$$$
>  <compound>
OCCC(F)(F)C(F)(F)C(F)(F)C(F)(F)C(F)(F)C(F)(F)F

>  <label>
label 0

$$$$
